# System: MDA-N
# Experiment notes: NCI tumour cell line growth inhibition, 48 h
Record form. Attribute: TGI. Fill in for each entry.

A selection of reference data follows.
CN=C1C=C(/N=C2/C=C(N/C(=C\C#N)C(C)(C)O)OC2(C)C)OC1(C)C ... > 100 µM
CCOC(=O)NCC(=O)NCC(=O)NCC(N)=O ... > 100 µM
CCOC(=O)C(NC(=O)c1ccccc1)(Nc1ccc(S(=O)(=O)Nc2cc(C)on2)cc1)C(F)(F)F (stereo not drawn) ... > 100 µM
O=[N+]([O-])/C=C/c1cn(CCCCCCCCn2cc(/C=C/[N+](=O)[O-])c3ccccc32)c2ccccc12 ... > 10 µM
CN(C)CCCNC(=O)N/N=C/c1ccccn1 ... > 10 µM

Would you mind listing TGI for each of the following compounds?
1. COc1cc2ccc(C(C)NCC#N)cc2cc1OC (stereo not drawn)
2. CCOC1OC(C)(C=C(C#N)C#N)CCC1C (stereo not drawn)

1. > 100 µM
2. > 100 µM

Report TGI for CCOC(=O)c1c(-c2ccc(Cl)cc2)c(C#N)c(=S)n(C2OC(COC(C)=O)C(OC(C)=O)C(OC(C)=O)C2OC(C)=O)c1C (stereo not drawn) please.
> 100 µM

This collection of values is drawn from PubChem BioAssay (NCI).
